Values were extracted from patent US20230293517A1.

Consider the following molecules and their measured Ki readings.
biological target: human Adenosine A2b receptor (Homo sapiens (Human), UniProt P29275); assay: Adenosine receptor TR-FRET binding assay (A2b); conditions: TR-FRET, inhibition of binding of 30 nM CA200645, CHO cell membranes
Sequence (P29275 whole entry): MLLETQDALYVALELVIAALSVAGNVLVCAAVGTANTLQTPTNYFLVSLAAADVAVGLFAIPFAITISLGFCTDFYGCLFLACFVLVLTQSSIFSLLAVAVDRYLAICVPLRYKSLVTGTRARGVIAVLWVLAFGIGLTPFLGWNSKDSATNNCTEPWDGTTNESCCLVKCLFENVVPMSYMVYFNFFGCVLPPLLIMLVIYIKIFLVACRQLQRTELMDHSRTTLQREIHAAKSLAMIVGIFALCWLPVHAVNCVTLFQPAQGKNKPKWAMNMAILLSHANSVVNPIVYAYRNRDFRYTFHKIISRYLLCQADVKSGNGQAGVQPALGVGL

[
  {
    "molecule": "Cc1cc(-c2sc(NC(=O)N3CCN[C@@H](C(N)=O)C3)nc2-c2cccc(C#N)c2)cc(Cl)n1",
    "units.text": "nM",
    "Ki": 1.8
  },
  {
    "molecule": "Cc1cc(-c2sc(NC(=O)N3CCC4(CC3)CN(C)C(=O)O4)nc2-c2cccc(C#N)c2)cc(C)n1",
    "units.text": "nM",
    "Ki": 2.4
  },
  {
    "molecule": "Cc1cc(-c2sc(NC(=O)N3CCNC[C@H]3CO)nc2-c2cccc(C#N)c2)cc(C)n1",
    "units.text": "nM",
    "Ki": 79.7
  },
  {
    "molecule": "Cc1cc(-c2sc(NC(=O)N3CCC4(CC3)CNCCO4)nc2-c2cccc(C#N)c2)cc(C)n1",
    "units.text": "nM",
    "Ki": 5.7
  },
  {
    "molecule": "Cc1cc(-c2sc(NC(=O)N3CCN4C(=O)CCCC4C3)nc2-c2cccc(C#N)c2)cc(C)n1 (centres unmarked)",
    "units.text": "nM",
    "Ki": 8.2
  },
  {
    "molecule": "Cc1cc(-c2sc(NC(=O)N3CCC(C#N)CC3)nc2-c2cccc(C#N)c2)cc(C)n1",
    "units.text": "nM",
    "Ki": 0.6
  },
  {
    "molecule": "Cc1cc(-c2sc(NC(=O)N3CCC(N4CCNC4=O)CC3)nc2-c2cccc(C#N)c2)cc(C)n1",
    "units.text": "nM",
    "Ki": 2
  },
  {
    "molecule": "Cc1cc(-c2sc(NC(=O)N3CCC4(CN(C)CCO4)C3)nc2-c2cccc(C#N)c2)cc(C(F)F)n1 (centres unmarked)",
    "units.text": "nM",
    "Ki": 2.3
  },
  {
    "molecule": "Cc1cc(-c2sc(NC(=O)N3CC[C@@H](C(C)(C)O)C3)nc2-c2cccc(C#N)c2)cc(CO)n1",
    "units.text": "nM",
    "Ki": 5.3
  },
  {
    "molecule": "Cc1cc(-c2sc(NC(=O)N3C[C@@H]4CNC(=O)[C@@H]4C3)nc2-c2cccc(C#N)c2)cc(C)n1",
    "units.text": "nM",
    "Ki": 8.6
  },
  {
    "molecule": "Cc1cc(-c2sc(NC(=O)N3CCC(n4cccn4)CC3)nc2-c2cccc(C#N)c2)cc(C)n1",
    "units.text": "nM",
    "Ki": 1.3
  }
]
